For each of the molecules below, state its Population Mitotic Cells (%).
# Tested on: HEK-293T
# TEST SUMMARY: Multiplex assay against HEK293T
# Assay type: toxicity, cell-based
# TEST SETTINGS: human, 24 h, 10 µM, compound concentration 10 uM, replicate 1
Quote the value and follow it with the unit of measurement.

Entry "O=c1[nH]c2ccccc2n1C1CCN(Cc2ccc(-c3[nH]c4cc5ncnc5cc4nc3-c3ccccc3)cc2)CC1" has what Population Mitotic Cells (%)?
45%

Requested read-out: Population Mitotic Cells (%). Entry: "CC(C)CC(=O)Nc1[nH]nc2c1CN(C(=O)C1CCN(C)CC1)C2(C)C"
75%

Sample CCc1nn(CCCN2CCN(c3cccc(Cl)c3)CC2)c(=O)n1CCOc1ccccc1.Cl [NEFAZODONE HYDROCHLORIDE] — what was its Population Mitotic Cells (%)?
9%

# get_value(readout='Population Mitotic Cells (%)', item= "C=CC(=O)Nc1cccc(Oc2nc(Nc3ccc(N4CCN(C)CC4)cc3OC)ncc2Cl)c1" )
92%

Item Cc1ccc2c(c1)c1c(n2CCc2ccc(C)nc2)CCN(C)C1 [LATREPIRDINE] has what recorded Population Mitotic Cells (%)?
9%

Quick check: Population Mitotic Cells (%) of "C=CC(=O)Nc1cccc(Sc2nc(Nc3ccc(N4CCN(C)CC4)cc3)ncc2Cl)c1" ?
73%
